# ASSAYED TARGET: MDM2 (Homo sapiens)
# Sequence (Q00987 1-125): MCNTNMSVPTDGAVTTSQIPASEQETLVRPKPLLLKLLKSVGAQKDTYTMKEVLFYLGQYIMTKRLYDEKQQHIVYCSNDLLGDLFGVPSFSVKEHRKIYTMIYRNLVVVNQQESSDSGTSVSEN
# PROTOCOL: Competitive fluorescence polarization assay for MDM2
# Type: binding
# CONDITION SUMMARY: competitive FP assay, MDM2; read-out: Ki (MDM2)
pKi: −log10 of the molar value.
READOUT LABEL: pKi

COMPOUND	RESULT
CC[C@H](C)[C@H](NC(=O)[C@H](C)NC(=O)[C@H](C)NC(=O)[C@]1(C)CCCC=CCCCCCC[C@@](C)(NC(=O)[C@H](Cc2ccccc2)NC(=O)[C@@H](NC(=O)[C@H](CC(C)C)NC(C)=O)[C@@H](C)O)C(=O)N[C@@H](C)C(=O)N[C@@H](Cc2ccc(O)cc2)C(=O)N[C@@H](Cc2c[nH]c3ccccc23)C(=O)N[C@@H](C)C(=O)N[C@@H](CCC(N)=O)C(=O)N[C@@H](CC(C)C)C(=O)N1)C(=O)N[C@@H](C)C(N)=O (single isomer, unassigned) [compound 65]	> 8.00

----------
# ASSAYED TARGET: MDM2 (Homo sapiens)
# PROTOCOL: Competitive fluorescence polarization assay for MDM2
# Type: binding
# CONDITION SUMMARY: competitive FP assay, MDM2; read-out: IC50 (MDM2)
Where a SMILES comes first, the peptide text is derived from it. Bridges are numbered along the chain shown (N, C = ends). [ ]: non-standard residue; d: D form. Phe(4-COOH) = N[C@@H](Cc1ccc(C(=O)O)cc1)C(=O)O; R8 = C=CCCCCCC[C@@](C)(N)C(=O)O; Cba = N[C@@H](CC1CCC1)C(=O)O; S5 = C=CCCC[C@](C)(N)C(=O)O; Nle = CCCC[C@H](N)C(=O)O
Entries and their IC50 values follow.
READOUT LABEL: IC50

MOLECULE	RESULT
CCCC[C@H](NC(=O)[C@H](C)NC(=O)[C@H](CO)NC(=O)[C@]1(C)CCCC=CCCCCCC[C@@](C)(NC(=O)[C@H](Cc2ccccc2)NC(=O)[C@@H](NC(=O)[C@H](CC(C)C)NC(C)=O)[C@@H](C)O)C(=O)N[C@@H](CCC(=O)O)C(=O)N[C@@H](Cc2ccc(C(=O)O)cc2)C(=O)N[C@@H](Cc2c[nH]c3ccccc23)C(=O)N[C@@H](C)C(=O)N[C@@H](CCC(N)=O)C(=O)N[C@@H](CC2CCC2)C(=O)N1)C(=O)N[C@@H](C)C(N)=O [compound 244] (Ac-LTF[R8]E[Phe(4-COOH)]WAQ[Cba][S5]SA[Nle]A-NH2; staple 4-11)	0.01 to 0.1 µM
CCCC[C@H](NC(=O)[C@H](Cc1c[nH]c2ccccc12)NC(=O)[C@H](C)NC(=O)[C@]1(C)CCCC=CCCCCCC[C@@](C)(NC(=O)[C@H](Cc2ccccc2)NC(=O)[C@@H](NC(=O)[C@H](CC(C)C)NC(C)=O)[C@@H](C)O)C(=O)N[C@@H](C)C(=O)N[C@@H](Cc2ccc(O)cc2)C(=O)N[C@@H](Cc2c[nH]c3ccccc23)C(=O)N[C@@H](C)C(=O)N[C@@H](CCC(N)=O)C(=O)N[C@@H](CC2CCC2)C(=O)N1)C(=O)N[C@@H](C)C(N)=O [compound 239] (Ac-LTF[R8]AYWAQ[Cba][S5]AW[Nle]A-NH2; staple 4-11)	0.01 to 0.1 µM
CCCC[C@H](NC(=O)[C@H](C)NC(=O)[C@H](CO)NC(=O)[C@]1(C)CCCC=CCCCCCC[C@@](C)(NC(=O)[C@H](Cc2ccccc2)NC(=O)[C@@H](NC(=O)[C@H](CC(C)C)NC(C)=O)[C@@H](C)O)C(=O)N[C@@H](CCC(=O)O)C(=O)N[C@@H](Cc2ccc(O)cc2)C(=O)N[C@@H](Cc2c[nH]c3ccccc23)C(=O)N[C@@H](CO)C(=O)N[C@@H](CCC(N)=O)C(=O)N[C@@H](CC2CCC2)C(=O)N1)C(=O)N[C@@H](C)C(N)=O [compound 245] (Ac-LTF[R8]EYWSQ[Cba][S5]SA[Nle]A-NH2; staple 4-11)	0.01 to 0.1 µM
CCCC[C@H](NC(=O)[C@H](C)NC(=O)[C@H](C)NC(=O)[C@]1(C)CCCC=CCCCCCC[C@@](C)(NC(=O)[C@H](Cc2ccccc2)NC(=O)[C@@H](NC(=O)[C@H](CC(C)C)NC(C)=O)[C@@H](C)O)C(=O)N[C@@H](C)C(=O)N[C@@H](Cc2ccc(O)cc2)C(=O)N[C@@H](Cc2c[nH]c3ccccc23)C(=O)N[C@@H](C)C(=O)N[C@@H](CCC(N)=O)C(=O)N[C@@H](CC(C)C)C(=O)N1)C(=O)N(C)CC(N)=O (single isomer, unassigned)	< 0.01 µM

Data credit: patent US8927500B2
